- System Under Test: T1, CD3 epsilon homodimer protein (UniProt P07766 23-126)
- T1 construct: also called CD3 (CD3 epsilon)
- T1 sequence (P07766 23-126): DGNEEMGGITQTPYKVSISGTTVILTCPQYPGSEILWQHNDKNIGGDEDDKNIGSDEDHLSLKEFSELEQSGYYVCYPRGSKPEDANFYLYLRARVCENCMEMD
- Method Notes: SPR Biacore T200, CD3e homodimer on chip, vs unaltered GLS3000 antibody
// classify: if (ratio of amounts bound (Z=Y/X) < 0.7) rule met else rule not met

Example entries begin here.
Task item: Take the binder GLS3000 F55L (antibody, name in Kabat numbering, V domains shown, one-arm IgG as m2) VH: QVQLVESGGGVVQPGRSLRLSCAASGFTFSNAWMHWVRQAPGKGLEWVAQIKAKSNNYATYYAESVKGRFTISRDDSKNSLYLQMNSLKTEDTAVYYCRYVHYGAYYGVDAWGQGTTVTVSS VL: DIVMTQSPLSLPVTPGEPASISCRSSQSLVHSNRNTYLHWYQQKPGQAPRLLIYKVSNRLSGVPDRFSGSGSGTDFTLKISRVEAEDVGVYYCGQGTQVPYTFGQGTKLEIK and say whether its ratio of amounts bound (Z=Y/X) is less than 0.7.
Reply: rule not met

Task item: Take the binder GLS3000 S27eW (antibody, name in Kabat numbering, V domains shown, one-arm IgG as m2) VH: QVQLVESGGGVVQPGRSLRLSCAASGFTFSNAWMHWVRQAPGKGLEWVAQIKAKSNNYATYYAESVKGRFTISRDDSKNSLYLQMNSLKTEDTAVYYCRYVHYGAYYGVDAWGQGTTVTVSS VL: DIVMTQSPLSLPVTPGEPASISCRSSQSLVHWNRNTYLHWYQQKPGQAPRLLIYKVSNRFSGVPDRFSGSGSGTDFTLKISRVEAEDVGVYYCGQGTQVPYTFGQGTKLEIK and say whether its ratio of amounts bound (Z=Y/X) is less than 0.7.
Reply: rule not met

Task item: Take the binder GLS3000 G89L (antibody, name in Kabat numbering, V domains shown, one-arm IgG as m2) VH: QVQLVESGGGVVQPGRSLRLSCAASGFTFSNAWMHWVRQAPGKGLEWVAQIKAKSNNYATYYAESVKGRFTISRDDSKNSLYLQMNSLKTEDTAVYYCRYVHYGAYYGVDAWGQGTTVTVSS VL: DIVMTQSPLSLPVTPGEPASISCRSSQSLVHSNRNTYLHWYQQKPGQAPRLLIYKVSNRFSGVPDRFSGSGSGTDFTLKISRVEAEDVGVYYCLQGTQVPYTFGQGTKLEIK and say whether its ratio of amounts bound (Z=Y/X) is less than 0.7.
Reply: rule not met

Now take the following binder into account.
Task item: Take the binder GLS3000 P95L (antibody, name in Kabat numbering, V domains shown, one-arm IgG as m2) VH: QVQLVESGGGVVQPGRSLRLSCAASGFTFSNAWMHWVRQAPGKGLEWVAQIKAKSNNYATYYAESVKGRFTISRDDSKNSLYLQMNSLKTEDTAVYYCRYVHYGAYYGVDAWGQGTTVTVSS VL: DIVMTQSPLSLPVTPGEPASISCRSSQSLVHSNRNTYLHWYQQKPGQAPRLLIYKVSNRFSGVPDRFSGSGSGTDFTLKISRVEAEDVGVYYCGQGTQVLYTFGQGTKLEIK and say whether its ratio of amounts bound (Z=Y/X) is less than 0.7.
Reply: rule met

Attribution: patent US20210388087A1
